The reported numbers originate from patent US20250361241A1.

Target: HPK1 (Homo sapiens (Human))
Test: HPK1 enzyme activity detection (1 mM ATP system), ADP-Glo with MBP substrate, Pharmacological Experiment 2
Format: biochemical
pIC50: −log10 of the molar value.
Label rule, in plain words: pIC50 of 8 and up is rule met, under 8 is rule not met.

Illustrative cases are given below, each with its answer.
{"molecule": "Cc1cc(Nc2ccc(-c3cnn4cc(F)ccc34)c3c2C(=O)NC3)nc2c1C1(CCOCC1)C[C@H]2N(C)C", "classAssignment": "rule met"}
{"molecule": "O=C1NCc2c(-c3cnc4cc(F)ccn34)ccc(Nc3ccc4c(n3)CCCC43CCCC3)c21", "classAssignment": "rule met"}
{"molecule": "CN1CCN(C2CC3(CCOCC3)c3ccc(Nc4ccc(-c5cnc6cc(F)ccn56)c5c4C(=O)NC5)nc32)CC1 (stereo not drawn)", "classAssignment": "rule not met"}
{"molecule": "CN1Cc2nc(Nc3ccc(-c4cnc5cc(F)ccn45)c4c3C(=O)NC4)ccc2C2(CCOCC2)C1", "classAssignment": "rule met"}
{"molecule": "N#Cc1ccn2c(-c3ccc(Nc4ccc5c(n4)CCCC54CCOCC4)c4c3CNC4=O)cnc2c1", "classAssignment": "rule met"}
{"molecule": "O=C1NCc2c(-c3cnc4cc(F)ccn34)ccc(Nc3ccc4c(n3)C(N3CCCCC3)CC43CCOCC3)c21 (stereo not drawn)", "classAssignment": "rule met"}
{"molecule": "O=C1NCc2c(-c3cnc4cc(F)ccn34)ccc(Nc3ccc4c(n3)C(N3CC[C@@H](F)C3)CC43CCOCC3)c21 (stereo partly drawn)", "classAssignment": "rule met"}
{"molecule": "COc1ccn2c(-c3ccc(Nc4ccc5c(n4)CCCC54CCOCC4)c4c3CNC4=O)cnc2c1", "classAssignment": "rule not met"}

Inquiry: Hello, I need to know if CO[C@H]1CCN(C2CC3(CCOCC3)c3ccc(Nc4ccc(-c5cnc6cc(F)ccn56)c5c4C(=O)NC5)nc32)C1 (stereo partly drawn) has measured pIC50 not below 8. Thanks!
Reply text: rule met

Inquiry: Decide: pIC50 of O=C1NCc2c(-c3cnc4cc(F)ccn34)ccc(Nc3ccc4c(n3)C(N3CC[C@H](F)C3)CC43CCOCC3)c21 (stereo partly drawn) [Compound 75] >= 8?
Reply text: rule met

Inquiry: Check the entry CN(C)C1CCC2(CCOCC2)c2ccc(Nc3ccc(-c4cnn5cc(F)ccc45)c4c3C(=O)NC4)nc21 (stereo not drawn) : does pIC50 equal or exceed 8?
Reply text: rule met

Inquiry: For this molecule, is measured pIC50 8 or higher? CN(C)C1CC2(CCOCC2)c2ccc(Nc3ccc(-c4cnc5n4CCOC5)c4c3C(=O)NC4)nc21 (stereo not drawn)
Reply text: rule not met

Inquiry: hey, is pIC50 for this one >= 8? CC(C)(C)NC1CC2(CCOCC2)c2ccc(Nc3ccc(-c4cnc5cc(F)ccn45)c4c3C(=O)NC4)nc21 (stereo not drawn)
Reply text: rule met

---

Test: PK study of compound in monkeys
Format: in vivo
Settings: crab-eating monkey; column beside IV plasma Cl_obs (IV 1 mg/kg)
assayEndpoint: half-life (h)
Express your answer in h, writing the number without its unit.

Inquiry: Requested field: half-life. Item: CN(C)Cc1nc(Nc2ccc(-c3cnc4cc(F)ccn34)c3c2C(=O)NC3)ccc1C1CCOCC1 [Compound D1, reference compound]
Reply text: 4.01

---

Target: HPK1 (Homo sapiens (Human))
Experiment: HPK1 enzyme activity detection (1 mM ATP system), ADP-Glo with MBP substrate, Pharmacological Experiment 2
Assay type: biochemical
assayEndpoint: IC50 (nM)
Your answer is read as nM, so omit the unit and give the number.

The cases that follow already have their IC50 on record.
{"substance": "4-(8-FLUORO-7-METHYLIMIDAZO[1,2-A]PYRIDIN-3-YL)-7-((2,3,5,6,7′,8′-HEXAHYDRO-6′H-SPIRO[PYRAN-4, 5′-[1,7]NAPHTHYRIDINE]-2′-YL)AMINO)ISOINDOL-1-ONE [Compound 149]", "IC50 (nM)": 4.42}
{"substance": "4-(7-FLUOROIMIDAZO[1,2-A]PYRIDIN-3-YL)-7-((7′-METHYL-2,3,5,6,7′,8′-HEXAHYDRO-6′-SPIRO[PYRAN-4,5′-[1,7]NAPHTHYRIDINE]-2′-YL)AMINO)ISOINDOL-1-ONE [Compound 50]", "IC50 (nM)": 3.39}
{"substance": "4-(7-FLUOROIMIDAZO[1,2-A]PYRIDIN-3-YL)-7-((2,3,5,6,7′,8′-HEXAHYDRO-6′H-SPIRO[PYRAN-4,5′-[1,7]NAPHTHYRIDINE]-2′-YL)AMINO)ISOINDOL-1-ONE [Compound 87]", "IC50 (nM)": 5.12}

Consider now this further substance.
Inquiry: GET /values?readout=IC50&item= 7-((2,3,5,6,7′,8′-HEXAHYDRO-6′-H-PYRANO[4,5′-[1,7]NAPHTHYRIDINE]-2′-YL)AMINO)-4-(7-(TRIFLUOROMETHYL)IMIDAZO[1,2-A]PYRIDIN-3-YL)ISOINDOL-1-ONE [Compound 147]
Reply text: 22

---

Entries and their pIC50 values follow.
Molecular target: HPK1 (Homo sapiens (Human), UniProt Q92918)
Sequence (Q92918 whole entry, species assumed): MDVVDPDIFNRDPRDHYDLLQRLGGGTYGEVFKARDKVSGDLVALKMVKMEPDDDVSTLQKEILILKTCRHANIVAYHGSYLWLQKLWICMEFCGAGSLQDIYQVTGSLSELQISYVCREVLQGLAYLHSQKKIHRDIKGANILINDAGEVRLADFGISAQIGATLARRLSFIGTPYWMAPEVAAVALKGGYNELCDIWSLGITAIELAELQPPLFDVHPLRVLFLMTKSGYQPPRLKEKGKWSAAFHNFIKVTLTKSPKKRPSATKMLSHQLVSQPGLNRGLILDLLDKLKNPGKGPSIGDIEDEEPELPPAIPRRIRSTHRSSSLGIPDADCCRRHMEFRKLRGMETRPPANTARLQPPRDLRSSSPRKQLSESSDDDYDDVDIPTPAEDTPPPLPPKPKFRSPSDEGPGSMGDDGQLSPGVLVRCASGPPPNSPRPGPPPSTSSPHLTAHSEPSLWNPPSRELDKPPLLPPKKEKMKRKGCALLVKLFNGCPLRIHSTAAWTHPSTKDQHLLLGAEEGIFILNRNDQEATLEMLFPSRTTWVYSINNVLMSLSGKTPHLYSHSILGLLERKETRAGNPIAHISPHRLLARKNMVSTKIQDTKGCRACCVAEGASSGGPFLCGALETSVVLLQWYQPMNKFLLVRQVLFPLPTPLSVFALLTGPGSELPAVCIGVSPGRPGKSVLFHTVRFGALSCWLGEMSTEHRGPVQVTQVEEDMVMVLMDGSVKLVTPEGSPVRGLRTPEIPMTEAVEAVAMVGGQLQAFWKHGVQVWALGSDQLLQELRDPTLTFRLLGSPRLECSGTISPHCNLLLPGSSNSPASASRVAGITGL
Experiment: HPK1 enzyme activity detection (1 mM ATP system), ADP-Glo with MBP substrate, Pharmacological Experiment 2
Assay type: biochemical
Expect pIC50 as a plain number equal to -log10 of the molar concentration.

{"molecule": "O=C1NCc2c(-c3cnc4cc(F)ccn34)ccc(Nc3ccc4c(n3)C(NCC3CC3)CC43CCOCC3)c21 (stereo not drawn)", "assayEndpoint": "pIC50", "valueMeasured": 8.30}
{"molecule": "CN(C)C1CCC2(CCOCC2)c2ccc(Nc3ccc(-c4cnn5ccccc45)c4c3C(=O)NC4)nc21 (stereo not drawn)", "assayEndpoint": "pIC50", "valueMeasured": 8.32}
{"molecule": "O=C1NCc2c(-c3cnc4cc(F)ccn34)ccc(Nc3ccc4c(n3)C(NC3CCOCC3)CC43CCOCC3)c21 (stereo not drawn)", "assayEndpoint": "pIC50", "valueMeasured": 8.48}
{"molecule": "CN(C)Cc1nc(Nc2ccc(-c3cnc4cc(F)ccn34)c3c2C(=O)NC3)cc2c1C1(CCOCC1)NC2", "assayEndpoint": "pIC50", "valueMeasured": 8.12}
{"molecule": "O=C1NCc2c(-c3cnn4c3CCCC4)ccc(Nc3ccc4c(n3)CNCC43CCOCC3)c21", "assayEndpoint": "pIC50", "valueMeasured": 7.96}
{"molecule": "CC(=O)N1Cc2nc(Nc3ccc(-c4cnc5cc(F)ccn45)c4c3C(=O)NC4)ccc2C2(CCCCC2)C1", "assayEndpoint": "pIC50", "valueMeasured": 7.42}
{"molecule": "O=C1NCc2c(-c3cnc4cc(F)ccn34)ccc(Nc3ccc4c(n3)C(NC3CCOC3)CC43CCOCC3)c21 (stereo not drawn)", "assayEndpoint": "pIC50", "valueMeasured": 8.45}
{"molecule": "CN(C)C1CCC2(CCOCC2)c2ccc(Nc3ccc(-c4cnn5cccnc45)c4c3C(=O)NC4)nc21 (stereo not drawn)", "assayEndpoint": "pIC50", "valueMeasured": 8.51}
{"molecule": "CNC1CC2(CCOCC2)c2ccc(Nc3ccc(-c4cnc5cc(F)ccn45)c4c3C(=O)NC4)nc21 (stereo not drawn)", "assayEndpoint": "pIC50", "valueMeasured": 8.67}
{"molecule": "CN(C)C1CC2(CCOCC2)c2ccc(Nc3ccc(-c4cnc5ccc(F)cn45)c4c3C(=O)NC4)nc21 (stereo not drawn)", "assayEndpoint": "pIC50", "valueMeasured": 7.73}

Inquiry: So what's the measured pIC50 for this one? C#CCN1Cc2nc(Nc3ccc(-c4cnc5cc(F)ccn45)c4c3C(=O)NC4)ccc2C2(CCOCC2)C1 [Compound 156]
Reply text: 7.41

Inquiry: Please report the recorded pIC50 for O=C1NCc2c(-c3cnc4cc(F)ccn34)ccc(Nc3ccc4c(n3)C(N3CCC(F)CC3)CC43CCOCC3)c21 (stereo not drawn) .
Reply text: 8.13

Inquiry: State the recorded pIC50 for this entry: O=C1NCc2c(-c3cnc4cc(F)ccn34)ccc(Nc3ccc4c(n3)C(NCC(F)(F)F)CC43CCOCC3)c21 (stereo not drawn)
Reply text: 7.15

Inquiry: Endpoint output: pIC50 of CN(C)C1CC2(CCOCC2)c2ccc(Nc3ccc(-c4cnc5cc(C#N)ccn45)c4c3C(=O)NC4)nc21 (stereo not drawn) . Value?
Reply text: 8.23

Inquiry: Requested read-out: pIC50. Entry: CN(C)C1CC2(CCOC2)c2ccc(Nc3ccc(-c4cnc5cc(F)ccn45)c4c3C(=O)NC4)nc21 (stereo not drawn)
Reply text: 8.28

---

Test: PK study of compound in monkeys
Format: in vivo
Conditions: plasma; crab-eating monkey, PO 5 mg/kg
assayEndpoint: AUC (ng·h/mL)
Report only the number, with the unit ng·h/mL understood.

Inquiry: What does the record list as AUC for CN(C)Cc1nc(Nc2ccc(-c3cnc4cc(F)ccn34)c3c2C(=O)NC3)ccc1C1CCOCC1 [Compound D1, reference compound] ?
Reply text: 1720
